tested on: SNB-75 CNS; test: NCI tumour cell line growth inhibition, 48 h
readout.label: TGI

{"compound": "N[C@@H]1CCN(c2c(F)cc3c(=O)c(C(=O)O)cn4c3c2Oc2cc3c(ccc5ccccc53)cc2-4)C1", "study.system": "SNB-75 CNS", "TGI": "> 100 µM"}
{"compound": "O=C(c1ccc(Cl)cc1)c1ccc(OCCCOc2ccc(C(=O)c3ccc(Cl)cc3)cc2Cl)c(Cl)c1", "study.system": "SNB-75 CNS", "TGI": "> 100 µM"}
{"compound": "Nc1nc(/C=C\\c2ccccc2)nc(N2CCN(c3ccccc3)CC2)n1", "study.system": "SNB-75 CNS", "TGI": "69.4 µM"}
{"compound": "Cc1ccc(C)n2c1nc1ccccc12", "study.system": "SNB-75 CNS", "TGI": "> 100 µM"}

Ask: Fill blank: measured TGI of the compound `O=C(/C=C\c1cccc2ccccc12)c1ccc(Cl)cc1Cl` is ____.
Result: > 100 µM

Ask: Would you mind telling me what TGI value was observed for Cc1cccc(C)c1N1C(=O)C(=O)C(c2nc3ccccc3s2)/C(=N\N)C1=O (stereo unspecified) ?
Result: > 100 µM

###

system: MDA-MB-435; assay: NCI tumour cell line growth inhibition, 48 h
readout.label: TGI

Here's what some known entries look like.
{"molecule": "Cc1ccc2nc(C(C)C)c(=O)[nH]c2c1", "recorded.value": "> 100 µM"}
{"molecule": "COC1CC(OC2C(C)OC(OC3C(C)OC(OC4C(C)OC(O[C@H]5CC[C@@]6(C)C(=CC[C@]7(O)[C@@H]6C[C@@H](OC(C)=O)[C@@]6(C)[C@]7(O)CC[C@@]6(O)C(C)=O)C5)CC4OC)CC3OC)CC2OC)OC(C)C1O (stereo partly drawn)", "recorded.value": "> 25 µM"}

Ask: // lookup TGI for NC1CCC(N(CC(=O)O)CC(=O)O)C(N(CC(=O)O)CC(=O)O)C1 (stereo not drawn)
Result: > 100 µM

###

system: IGROV1 ovarian; experiment: NCI tumour cell line growth inhibition, 48 h
readout.label: TGI

Worked examples follow.
{"compound": "O=C1CC(CC(=O)c2ccc(Br)cc2)C(=O)/C1=C(/O)c1ccc(Br)cc1 (stereo not given)", "study.system": "IGROV1 ovarian", "TGI": "> 100 µM"}
{"compound": "CCOC(=O)c1nc2cc(C(F)(F)F)ccc2nc1Nc1ccc(C(=O)OC)s1", "study.system": "IGROV1 ovarian", "TGI": "> 100 µM"}
{"compound": "CC1(C)CCCC(C)(C2CCC3(C)C2C(O)CC2C4(C)CCC(O)C(C)(C)C4CCC23C)O1 (stereo not given)", "study.system": "IGROV1 ovarian", "TGI": "> 100 µM"}
{"compound": "CC1C2C=C(O)C(=O)C(C2=O)C1c1ccccc1 (stereo not given)", "study.system": "IGROV1 ovarian", "TGI": "> 100 µM"}
{"compound": "O=C(Nc1ccc(Cl)c(Cl)c1)C(=O)C(C(=O)c1ccccc1-c1ccccc1)C1OC(=O)c2ccccc21 (stereo not given)", "study.system": "IGROV1 ovarian", "TGI": "73.5 µM"}
{"compound": "COc1nc(N)c(NC(C)=O)c(=O)n1C", "study.system": "IGROV1 ovarian", "TGI": "> 100 µM"}
{"compound": "CN(C)c1c(C2OC(CO)C(O)C2O)c(=O)c1=O (stereo not given)", "study.system": "IGROV1 ovarian", "TGI": "> 100 µM"}
{"compound": "O=C(/C=C/c1cccc([N+](=O)[O-])c1)c1ccc([N+](=O)[O-])cc1", "study.system": "IGROV1 ovarian", "TGI": "> 100 µM"}

Ask: Find the recorded TGI belonging to `Cc1ccc2c(=O)cc(-c3ccc4ccccc4c3)[nH]c2n1` and report it.
Result: 82.7 µM

Ask: Find the recorded TGI belonging to OC(CN(CCCl)CCCl)C(O)C(O)C(O)CN(CCCl)CCCl (stereo not given) and report it.
Result: > 100 µM

Ask: What measured TGI goes with `CC(C)COc1nc2c(c(=O)n(C)c(=O)n2C)n1C` ?
Result: > 100 µM
